Test: ATP-based viability loss in HeLa cells – cell-based, CellTiter-Glo luminescence, cherry-pick samples, cytotoxicity control for MITF activator project, dose response (AID 540259)
Settings: 24 h; series mostly up to 35 µM
Entries with a potency or affinity are not part of this list. Active and inactive are the calls of the source.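 How the source made its calls: active means cell killing, meaning signal decrease, with fitted half-maximal dose at or below ten times the top valid tested dose; inconclusive means poor fit, or flat curve with 30 to 70% signal loss; inactive means the rest.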

{"compound": "Cc1ccccc1-c1nc(Cc2ccccc2)no1", "outcome": "inactive"}
{"compound": "Cc1cccc(Nc2nc3c(s2)CCCC3)c1", "outcome": "inactive"}
{"compound": "Cc1ccc(C2=NN(S(C)(=O)=O)C(c3cccs3)C2)cc1 (stereo not given)", "outcome": "inactive"}
{"compound": "CCCCC(=O)Nc1sc2c(c1C#N)CC(C)(C)OC2", "outcome": "inactive"}
{"compound": "Cc1ccc(Nc2nc(CSc3n[nH]c(N)n3)cs2)cc1", "outcome": "inactive"}
{"compound": "C=CCc1c(C)nc(-c2ccccc2)nc1N/N=C/c1ccncc1", "outcome": "inactive"}
{"compound": "FC(F)(F)c1cnc(-c2cnc(-c3cccnc3)nc2)c(Cl)c1", "outcome": "inactive"}
{"compound": "Clc1ccc(-n2nnc(-c3cccnc3Cl)n2)cn1", "outcome": "inactive"}
{"compound": "Cc1nc(SCc2ccccc2)nc2c1CCC2", "outcome": "inactive"}
{"compound": "c1ccc(COc2ccc(-c3csnn3)cc2)cc1", "outcome": "inactive"}
{"compound": "c1ccc2c(c1)NC1(CCCC1)n1c-2nc2ccccc21", "outcome": "inactive"}
{"compound": "CC(C)C(=O)Nc1cccc(-c2cnc3ccccc3n2)c1", "outcome": "inactive"}
{"compound": "COc1c(C)cccc1C(=O)Nc1ccc(N2CCN(S(C)(=O)=O)CC2)cc1", "outcome": "inactive"}
{"compound": "O=C(N/N=C/c1ccc(OC(=O)c2ccccc2Cl)cc1)c1ccccn1", "outcome": "inactive"}
{"compound": "CC(=O)c1ccc(Nc2ccc(-c3ccccc3C)nn2)cc1", "outcome": "inactive"}
{"compound": "O=C(c1nnc(-c2ccc(Cl)cc2)o1)C1CCCC1", "outcome": "inactive"}
{"compound": "COc1ccc2sc(NCc3ccccc3)nc2c1", "outcome": "inactive"}
{"compound": "COc1ccc2cc(C(=O)NCCc3ccccc3)[nH]c2c1", "outcome": "inactive"}
{"compound": "COc1ccc(/C=C2\\CCn3c2nc2ccccc2c3=O)cc1OC", "outcome": "inactive"}
{"compound": "Cc1ccc(N2C(=O)S/C(=C/c3cn(C)c4ccccc34)C2=O)cc1", "outcome": "inactive"}
{"compound": "COC(=O)c1ccc(Nc2ncnc3sccc23)cc1", "outcome": "inactive"}
{"compound": "O=C(O)c1ccc(/C=C/c2ccc3cccc(O)c3n2)cc1", "outcome": "inactive"}
{"compound": "Cc1ccc(NC(=O)N2CCc3ccccc3C2)cc1C", "outcome": "inactive"}
{"compound": "CC(=O)Nc1ccc2c(c1)ncn2-c1ccccc1", "outcome": "inactive"}
{"compound": "Cc1ccc(CNc2ccc3c(c2)ncn3C(C)C)cc1", "outcome": "inactive"}

The measurements presented in this section are drawn from PubChem BioAssay AID540259.
